# GTP binding, percent of control per entry
- systemUnderTest: GTPase HRas (Homo sapiens) (UniProt P01112)
- Sequence (P01112 whole entry, looked up): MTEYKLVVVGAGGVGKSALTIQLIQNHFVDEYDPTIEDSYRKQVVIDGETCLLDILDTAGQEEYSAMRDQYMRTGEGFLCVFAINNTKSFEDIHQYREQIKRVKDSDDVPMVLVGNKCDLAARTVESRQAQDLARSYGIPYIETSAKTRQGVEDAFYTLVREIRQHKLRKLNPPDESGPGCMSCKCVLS
- assay: Ras wt fluorescent GTP loading blockade – biochemical, wildtype, multiplex bead flow cytometry, dose response (AID 1335)
- conditionSummary: bead-based flow cytometry, Bodipy-GTP binding to GST-Ras; at 100 µM (top of the series) unless noted

Cc1cc(=O)[nH]c2c(N=Nc3ccc(O)cc3)c(N)nn12 = 69.7%
CCNC(=S)N(Cc1cccs1)Cc1cc2cc(OCC)ccc2[nH]c1=O = 66%
N#C/C(=C\c1ccc(-c2ccc(C(=O)O)cc2)o1)c1nc2ccccc2[nH]1 = 221%

Prompt: Entry CCOC(=O)Cn1nnnc1C(CC)N(Cc1cccs1)Cc1cc2ccc(OC)cc2[nH]c1=O (configuration not stated) has what GTP binding, percent of control?
Completion: 173%

Prompt: Moving on to the next compound: Cc1ccc(/C=C/C(=O)c2ccccc(=O)c2O)cc1C
Completion: 81.8%

Prompt: Moving on to the next compound: COc1ccc2c(C)cc3nncn3c2c1
Completion: 92.8%

Prompt: Moving on to the next compound: CCOc1cc(/C=N/NC(=O)C(C)Sc2ccccc2)ccc1O (configuration not stated)
Completion: 73.5%
